The reader will find pKi measurements below, all made with Melanin-concentrating hormone receptor 2 (Homo sapiens, UniProt Q969V1).
Sequence (Q969V1 whole entry): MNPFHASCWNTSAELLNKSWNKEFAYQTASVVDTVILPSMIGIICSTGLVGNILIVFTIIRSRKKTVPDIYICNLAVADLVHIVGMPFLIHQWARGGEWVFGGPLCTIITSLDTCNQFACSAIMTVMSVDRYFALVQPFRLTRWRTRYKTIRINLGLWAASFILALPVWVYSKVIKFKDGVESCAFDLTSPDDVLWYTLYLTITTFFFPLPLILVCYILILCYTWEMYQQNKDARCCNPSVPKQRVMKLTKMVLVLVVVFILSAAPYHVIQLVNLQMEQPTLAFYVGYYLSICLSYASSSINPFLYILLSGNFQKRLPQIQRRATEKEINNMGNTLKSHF
pKi: −log10 of the molar value. Positions of bridges follow the written chain, without caps; N, C: chain ends. Non-standard residues stand in square brackets, D forms with d. Residues, ends and D or L forms follow the SMILES beside them. *: point of attachment. Pentanoyl(5-guanidino) = NC(N)=NCCCCC(=O)*; Ava = NCCCCC(=O)O
parameter_measured: pKi

Check out these entries, answers already filled in.
compound=CSCC[C@@H]1NC(=O)[C@@H](NC(=O)[C@H](CCCNC(=N)N)NC(=O)[C@H](CC(C)C)NC(=O)[C@H](CCSC)NC(=O)[C@H](CC(=O)O)NC(=O)[C@H](Cc2ccccc2)NC(=O)[C@@H](N)CC(=O)O)CSSC[C@@H](C(=O)N[C@@H](Cc2c[nH]c3ccccc23)C(=O)N[C@@H](CCC(N)=O)C(=O)N[C@H](C(=O)O)C(C)C)NC(=O)[C@@H]2CCCN2C(=O)[C@H](CCCNC(=N)N)NC(=O)[C@H](Cc2ccc(O)cc2)NC(=O)[C@H](C(C)C)NC(=O)[C@H](CCCNC(=N)N)NC(=O)CNC(=O)[C@H](CC(C)C)NC1=O study_system="Melanin-concentrating hormone receptor 2 (Homo sapiens, UniProt Q969V1)" endpoint_result=8.54
compound=CSCC[C@@H]1NC(=O)[C@@H](NC(=O)[C@H](CCN=C(N)N)NC(C)=O)CSSC[C@@H](C(N)=O)NC(=O)CCCCNC(=O)[C@H](Cc2ccc(O)cc2)NC(=O)[C@H](C(C)C)NC(=O)[C@H](CCCN=C(N)N)NC(=O)CNC(=O)[C@H](CC(C)C)NC1=O study_system="Melanin-concentrating hormone receptor 2 (Homo sapiens, UniProt Q969V1)" endpoint_result=7.37
compound="CSCC[C@@H]1NC(=O)[C@@H](NC(=O)CCCCN=C(N)N)CSSC[C@@H](C(N)=O)NC(=O)CCCCNC(=O)[C@H](Cc2ccc(O)cc2)NC(=O)[C@H](C)NC(=O)[C@H](CCCN=C(N)N)NC(=O)CNC(=O)[C@H](CC(C)C)NC1=O [Gva6,Ala12,Ava14,15] ({Pentanoyl(5-guanidino)}-CMLGRAY[Ava]C-NH2; disulfide 1-9)" study_system="Melanin-concentrating hormone receptor 2 (Homo sapiens, UniProt Q969V1)" endpoint_result=7.46
compound=CSCC[C@@H]1NC(=O)[C@@H](NC(=O)CCCN=C(N)N)CSSC[C@@H](C(N)=O)NC(=O)CCCCNC(=O)[C@H](Cc2ccc(O)cc2)NC(=O)[C@H](C(C)C)NC(=O)[C@H](CCCN=C(N)N)NC(=O)CNC(=O)[C@H](CC(C)C)NC1=O study_system="Melanin-concentrating hormone receptor 2 (Homo sapiens, UniProt Q969V1)" endpoint_result=7.35
compound="CC(C)C[C@@H]1NC(=O)[C@H](C)NC(=O)[C@@H](NC(=O)CCCCN=C(N)N)CSSC[C@@H](C(N)=O)NC(=O)CCCCNC(=O)[C@H](Cc2ccc(O)cc2)NC(=O)[C@H](C(C)C)NC(=O)[C@H](CCCN=C(N)N)NC(=O)CNC1=O [Gva6,Ala8,Ava14,15] ({Pentanoyl(5-guanidino)}-CALGRVY[Ava]C-NH2; disulfide 1-9)" study_system="Melanin-concentrating hormone receptor 2 (Homo sapiens, UniProt Q969V1)" endpoint_result=7.48

[P] CSCC[C@@H]1NC(=O)[C@@H](NC(=O)[C@@H](CCCN=C(N)N)NC(C)=O)CSSC[C@@H](C(N)=O)NC(=O)CCCCNC(=O)[C@H](Cc2ccc(O)cc2)NC(=O)[C@H](C(C)C)NC(=O)[C@H](CCCN=C(N)N)NC(=O)CNC(=O)[C@H](CC(C)C)NC1=O
[Q] CSCC[C@@H]1NC(=O)[C@@H](NC(=O)CCCCN=C(N)N)CSSC[C@@H](C(=O)O)NC(=O)CCCCNC(=O)[C@H](Cc2ccc(O)cc2)NC(=O)[C@H](C(C)C)NC(=O)[C@H](CCCN=C(N)N)NC(=O)CNC(=O)[C@H](CC(C)C)NC1=O
// compare: P vs Q , metric pKi, want the smaller Which one? Tell me its label. P

----------
- study_system: UniProt:Q969V1
Positions of bridges follow the written chain, without caps; N, C: chain ends. Non-standard residues stand in square brackets, D forms with d. Residues, ends and D or L forms follow the SMILES beside them. *: point of attachment. Pentanoyl(5-guanidino) = NC(N)=NCCCCC(=O)*; Ava = NCCCCC(=O)O
parameter_measured: Ki (nM)
Kindly answer with a numeric value in nM, unit omitted.

Check out these entries, answers already filled in.
compound="CSCC[C@@H]1NC(=O)[C@@H](NC(=O)CCCCN=C(N)N)CSSC[C@@H](C(N)=O)NC(=O)CCCCNC(=O)[C@H](Cc2ccc(O)cc2)NC(=O)[C@H](C(C)C)NC(=O)[C@H](CCCN=C(N)N)NC(=O)CNC1=O [Gva6,desLeu9,Ava14,15] ({Pentanoyl(5-guanidino)}-CMGRVY[Ava]C-NH2; disulfide 1-8)" unit_name=nM endpoint_result=20
compound="CSCC[C@@H]1NC(=O)[C@@H](NC(=O)CCCCN=C(N)N)CSSC[C@@H](C(N)=O)NC(=O)[C@H]2CC[C@H](CC2)NC(=O)[C@H](Cc2ccc(O)cc2)NC(=O)[C@H](C(C)C)NC(=O)[C@H](CCCN=C(N)N)NC(=O)CNC(=O)[C@H](CC(C)C)NC1=O [Gva6,cisAcx14,15]" unit_name=nM endpoint_result=3100

--- query ---
Tell me the measured Ki of CC(=O)N[C@@H](CCCN=C(N)N)C(=O)N[C@H]1CSSC[C@@H](C(N)=O)NC(=O)CCCCNC(=O)[C@H](Cc2ccc(O)cc2)NC(=O)[C@H](C(C)C)NC(=O)[C@H](CCCN=C(N)N)NC(=O)CNC(=O)[C@H](CC(C)C)NC(=O)[C@H](C)NC1=O [Ala8,Ava14,15] (Ac-RCALGRVY[Ava]C-NH2; disulfide 2-10) , please. 38

----------
The reader will find Ki measurements below, all made with Melanin-concentrating hormone receptor 1 (Homo sapiens, UniProt Q99705).
Sequence (Q99705 as listed by the source): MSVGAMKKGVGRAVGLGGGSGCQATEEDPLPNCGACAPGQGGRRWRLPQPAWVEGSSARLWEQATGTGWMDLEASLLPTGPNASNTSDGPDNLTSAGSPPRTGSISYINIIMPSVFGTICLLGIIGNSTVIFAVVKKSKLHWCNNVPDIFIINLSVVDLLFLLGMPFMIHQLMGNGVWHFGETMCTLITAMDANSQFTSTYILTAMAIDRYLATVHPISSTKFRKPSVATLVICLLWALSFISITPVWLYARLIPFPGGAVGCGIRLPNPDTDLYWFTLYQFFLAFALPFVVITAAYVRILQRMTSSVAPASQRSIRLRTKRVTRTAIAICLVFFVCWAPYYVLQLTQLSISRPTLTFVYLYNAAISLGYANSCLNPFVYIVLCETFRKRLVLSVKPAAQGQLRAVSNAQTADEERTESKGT
Positions of bridges follow the written chain, without caps; N, C: chain ends. Non-standard residues stand in square brackets, D forms with d. Residues, ends and D or L forms follow the SMILES beside them. *: point of attachment. Pentanoyl(5-guanidino) = NC(N)=NCCCCC(=O)*; Ava = NCCCCC(=O)O
parameter_measured: Ki (nM)

Check out these entries, answers already filled in.
compound="CSCC[C@@H]1NC(=O)[C@@H](NC(=O)CCCCN=C(N)N)CSSC[C@@H](C(N)=O)NC(=O)[C@H]2CC[C@H](CC2)NC(=O)[C@H](Cc2ccc(O)cc2)NC(=O)[C@H](C(C)C)NC(=O)[C@H](CCCN=C(N)N)NC(=O)CNC(=O)[C@H](CC(C)C)NC1=O [Gva6,cisAcx14,15]" endpoint_result=10
compound="CSCC[C@@H]1NC(=O)[C@@H](NC(=O)CCCCN=C(N)N)CSSC[C@@H](C(=O)O)NC(=O)CCCCNC(=O)[C@H](Cc2ccc(O)cc2)NC(=O)[C@H](C(C)C)NC(=O)[C@H](CCCN=C(N)N)NC(=O)CNC(=O)[C@H](CC(C)C)NC1=O [Gva6,Ava14,15, OH]" endpoint_result=66
compound="CSCC[C@@H]1NC(=O)[C@@H](NC(=O)CCCCN=C(N)N)CSSC[C@@H](C(N)=O)NC(=O)CCCCNC(=O)[C@H](Cc2ccc(O)cc2)NC(=O)[C@H](C)NC(=O)[C@H](CCCN=C(N)N)NC(=O)CNC(=O)[C@H](CC(C)C)NC1=O [Gva6,Ala12,Ava14,15] ({Pentanoyl(5-guanidino)}-CMLGRAY[Ava]C-NH2; disulfide 1-9)" endpoint_result=25

[I] CSCC[C@@H]1NC(=O)[C@@H](NC(=O)CCCN=C(N)N)CSSC[C@@H](C(N)=O)NC(=O)CCCCNC(=O)[C@H](Cc2ccc(O)cc2)NC(=O)[C@H](C(C)C)NC(=O)[C@H](CCCN=C(N)N)NC(=O)CNC(=O)[C@H](CC(C)C)NC1=O [Gbu6,Ava14,15]
[II] CSCC[C@@H]1NC(=O)[C@@H](NC(=O)[C@@H](CCCN=C(N)N)NC(C)=O)CSSC[C@@H](C(N)=O)NC(=O)CCCCNC(=O)[C@H](Cc2ccc(O)cc2)NC(=O)[C@H](C(C)C)NC(=O)[C@H](CCCN=C(N)N)NC(=O)CCCCNC1=O [D-Arg6,Ava9,10,Ava14,15]
// compare: I vs II , metric Ki, want the smaller Which one? Tell me its label. I
(I: 7.9 nM, II: 69 nM)

----------
The reader will find pKi measurements below, all made with Melanin-concentrating hormone receptor 2 (Homo sapiens, UniProt Q969V1).
Positions of bridges follow the written chain, without caps; N, C: chain ends. Non-standard residues stand in square brackets, D forms with d. Residues, ends and D or L forms follow the SMILES beside them. *: point of attachment. Pentanoyl(5-guanidino) = NC(N)=NCCCCC(=O)*; Abu = CC[C@H](N)C(=O)O; Aoc = NCCCCCCCC(=O)O; Ava = NCCCCC(=O)O
Keep it numeric: pKi is minus log10 of the concentration in mol/L.

Check out these entries, answers already filled in.
compound="CSCC[C@@H]1NC(=O)[C@@H](NC(=O)CCCCN=C(N)N)CSSC[C@@H](C(N)=O)NC(=O)CCCCNC(=O)[C@H](Cc2ccc(O)cc2)NC(=O)[C@H](C(C)C)NC(=O)[C@H](CCCN=C(N)N)NC(=O)CCCCNC1=O [Gva6,Ava9,10,Ava14,15] ({Pentanoyl(5-guanidino)}-CM[Ava]RVY[Ava]C-NH2; disulfide 1-8)" parameter_measured=pKi endpoint_result=7.40
compound="CC[C@@H]1NC(=O)[C@@H](NC(=O)CCCCN=C(N)N)CSSC[C@@H](C(N)=O)NC(=O)CCCCNC(=O)[C@H](Cc2ccc(O)cc2)NC(=O)[C@H](C(C)C)NC(=O)[C@H](CCCN=C(N)N)NC(=O)CNC(=O)[C@H](CC(C)C)NC1=O [Gva6,alphaAbu8,Ava14,15] ({Pentanoyl(5-guanidino)}-C[Abu]LGRVY[Ava]C-NH2; disulfide 1-9)" parameter_measured=pKi endpoint_result=7.37

--- query ---
Tell me the measured pKi of CC(=O)N[C@@H](CCCN=C(N)N)C(=O)N[C@H]1CSSC[C@@H](C(N)=O)NC(=O)[C@@H]2CCCN2C(=O)[C@H](CCCN=C(N)N)NC(=O)[C@H](Cc2ccc(O)cc2)NC(=O)[C@H](C(C)C)NC(=O)[C@H](CCCN=C(N)N)NC(=O)CCCCCCCNC1=O [Aoct8,9,10] (Ac-RC[Aoc]RVYRPC-NH2; disulfide 2-9) , please. 7.20
